Entry source: patent US12202826B2

system: L-Wnt cells (murine Wnt-3a) / Leading Light Wnt Reporter Cells (luciferase under control of Wnt pathway response elements); assay: Dual-Cell β-Catenin Reporter Assay; type: cell-based, Mouse; details: category of IC50; luciferase signal reduced to 50% of DMSO control
pIC50: −log10 of the molar value.
MEASURE NAME: pIC50

Below, 3 compounds whose answers are already recorded.
{"COMPOUND": "Cc1nn(CC(=O)Nc2ccc(-c3cnccn3)cn2)c(C)c1-c1ccnc(N(C)C)c1 [compound 100]", "pIC50": "7.00 to 8.30"}
{"COMPOUND": "O=C(Cn1cc(-c2cc(C(F)(F)F)ncn2)cn1)Nc1ccc(-c2cnccn2)cn1 [compound 41]", "pIC50": "7.00 to 8.30"}
{"COMPOUND": "Cn1nccc1-c1cnn(CC(=O)Nc2ccc(-c3cnccn3)cn2)c1 [compound 26]", "pIC50": "7.00 to 8.30"}

Exercise: Quote pIC50 reported for Cc1nn(CC(=O)Nc2ccc(-c3cccnc3)cn2)c(C)c1-c1ccnc(C(F)(F)F)c1 [compound 52] please.
Key: > 8.30

Exercise: Quick one: give measured pIC50 for CC(C)n1nccc1-c1cnn(CC(=O)Nc2ccc(-c3cnccn3)cn2)c1 [compound 43]
Key: < 7.00

* * *

Items are presented alongside their recorded pIC50.
tested on: L-Wnt cells (murine Wnt-3a) / Leading Light Wnt Reporter Cells (luciferase under control of Wnt pathway response elements); test: Dual-Cell β-Catenin Reporter Assay; format: cell-based, Mouse; settings: category of IC50; luciferase signal reduced to 50% of DMSO control
pIC50: −log10 of the molar value.

Below, 2 compounds whose answers are already recorded.
{"COMPOUND": "Cc1nn(CC(=O)Nc2ccc(-c3cnccn3)cn2)c(C)c1C1=CCOCC1 [compound 48]", "pIC50": "> 8.30"}
{"COMPOUND": "Cc1cc(-c2cnccn2)cnc1NC(=O)Cn1nc(C)c(-c2ccnc(C(F)(F)F)c2)c1C [compound 76]", "pIC50": "< 7.00"}

Please find the next compound below.
Exercise: Identify pIC50 associated with the compound Cc1cn(CC(=O)Nc2ccc(-c3cnccn3)cn2)nc1-c1ccnc(C(F)(F)F)c1 [compound 67]
Key: > 8.30
